Ref: patent US6881421B1

Quick reference for Content of combined PIBCA and HP CD particles among some compounds
EXPERIMENT: Titration of progesterone/steroid content of nanoparticles by HPLC
Type: physicochemical
CONDITIONS: average of three preparations
REPORTED METRIC: Content of combined PIBCA and HP CD particles

- CC(=O)O[C@]1(C(C)=O)CC[C@H]2[C@@H]3C=C(C)C4=CC(=O)CC[C@]4(C)[C@H]3CC[C@@]21C [Megestrolacetate, megestrol acetate]: 3.64 mmol/g
- C[C@]12C=CC(=O)C=C1CC[C@@H]1[C@@H]2[C@@H](O)C[C@@]2(C)[C@H]1CC[C@]2(O)C(=O)CO [Prednisolone, prednisolone]: 43.00 mmol/g
- CC(=O)[C@H]1CC[C@H]2[C@@H]3CCC4=CC(=O)CC[C@]4(C)[C@H]3CC[C@]12C [Progesterone, progesterone]: 69.60 mmol/g
